Quick reference: MIC of the listed items.
# Test system: Mycobacterium tuberculosis
# methodNotes: Antitubercular activity against Mycobacterium tuberculosis H37Rv assessed as reduction in microbial growth under anaerobic condition by luminescence analysis
# Assay type: functional

compound: C[C@]1(COc2ccc(C(F)(F)F)cn2)CCn2cc([N+](=O)[O-])nc2O1
assaySystem: Mycobacterium tuberculosis
uom: µM
MIC: 3.8

compound: CC1(COc2ccc(Cl)cn2)CCn2cc([N+](=O)[O-])nc2O1 (configuration not stated)
assaySystem: Mycobacterium tuberculosis
uom: µM
MIC: 8.7

compound: O=[N+]([O-])c1cn2c(n1)OC(COc1ccc(OC(F)(F)F)cc1)CC2 (configuration not stated)
assaySystem: Mycobacterium tuberculosis
uom: µM
MIC: 4.7

compound: CC1(COc2ccc(C(F)(F)F)cn2)CCn2cc([N+](=O)[O-])nc2O1 (configuration not stated)
assaySystem: Mycobacterium tuberculosis
uom: µM
MIC: 8.9

compound: CC1(COc2ccc(C(F)(F)F)cc2)CCn2cc([N+](=O)[O-])nc2O1 (configuration not stated)
assaySystem: Mycobacterium tuberculosis
uom: µM
MIC: 4.1

compound: CC1(COc2ccc(Oc3ccccc3)cc2)CCn2cc([N+](=O)[O-])nc2O1 (configuration not stated)
assaySystem: Mycobacterium tuberculosis
uom: µM
MIC: 2.7

compound: O=[N+]([O-])c1cn2c(n1)OC(COc1ccc(C(F)(F)F)cn1)CC2 (configuration not stated)
assaySystem: Mycobacterium tuberculosis
uom: µM
MIC: 20
